Where do the numbers come from? From ChEMBL document CHEMBL2311411.

Assay: Toxicity in brine shrimp larvae assessed as mortality after 24 hrs by microtiter plate analysis
Format: organism-based
Details: artemia salina, in vivo
PROPERTY MEASURED: LC50 at 24 h

COc1ccc([C@H]2OC[C@]3(O)[C@@H](c4ccc(OC)c(O)c4)OC[C@H]23)cc1O | > 100 µg/mL
CC(=O)O[C@@H]1C[C@H](O)[C@@]23CO[C@@H](O)[C@]1(C)[C@@H]2C[C@@H](O)[C@]1(C)[C@@H]3C(=O)[C@H](OC(C)=O)[C@@]2(C)[C@H](c3ccoc3)C[C@H]3O[C@]321 [TOOSENDANIN] | < 1 µg/mL
COc1cc2c(c(OC)c1OC)-c1c(cc(OC)c(OC)c1OC)C[C@](C)(O)[C@@H](C)C2 [SCHIZANDRIN] | > 100 µg/mL

Using the record for COc1cc2c(c(OC)c1OC)-c1c(cc3c(c1OC)OCO3)C[C@H](C)[C@]1(CO1)[C@H]2OC(=O)c1ccccc1 [SCHISANDRIN A1] , report its LC50 at 24 h.
97.5 µg/mL

* * *

Assay: Cytotoxicity against mouse LLC cells after 72 hrs by MTT assay
Type: functional, cell-based
Conditions: Lewis lung carcinoma
PROPERTY MEASURED: IC50

Solved cases (2 shown):
COc1cc2c(c(OC)c1OC)-c1c(cc3c(c1OC)OCO3)C[C@H](C)[C@]1(CO1)[C@H]2OC(=O)c1ccccc1 | > 100 µM
COc1cc2c(c(OC)c1OC)-c1c(cc(OC)c(OC)c1OC)C[C@](C)(O)[C@@H](C)C2 | > 100 µM

Using the record for COc1c2c(cc3c1-c1c(cc4c(c1OC)OCO4)C[C@H](C)[C@H](C)C3)OCO2 , report its IC50.
> 100 µM

* * *

Target: DNA-binding protein inhibitor ID-1 (Homo sapiens) (UniProt P41134)
Experiment: Inhibition of ID1 in human U87 cells at 100 uM by luciferase reporter gene assay
Assay type: cell-based
Settings: U-87MG ATCC
Classification field: label 1 = inhibition at or over 40%; label 0 = inhibition under 40%.

Use these answered entries as a reference point.
CCCCCC(=O)O[C@H]1c2cc(OC)c(OC)c(OC)c2-c2c(cc3c(c2OC)OCO3)C[C@H](C)[C@]1(C)O | label 1
CCCCCCCCCCCC(=O)O[C@H]1c2cc(OC)c(OC)c(OC)c2-c2c(cc3c(c2OC)OCO3)C[C@H](C)[C@]1(C)O | label 0
CCCCC(=O)O[C@H]1c2cc(OC)c(OC)c(OC)c2-c2c(cc3c(c2OC)OCO3)C[C@H](C)[C@]1(C)O | label 0
CCCC(=O)O[C@H]1c2cc(OC)c(OC)c(OC)c2-c2c(cc3c(c2OC)OCO3)C[C@H](C)[C@]1(C)O | label 0
COc1cc(C=O)c(-c2c(C[C@H](C)C(C)=O)cc3c(c2OC)OCO3)c(OC)c1OC | label 1
CCCCCCCCCCCCCC(=O)O[C@H]1c2cc(OC)c(OC)c(OC)c2-c2c(cc3c(c2OC)OCO3)C[C@H](C)[C@]1(C)O | label 0

Now consider a different compound.
In plain terms: is recorded inhibition at least 40% for CCCCCCC(=O)O[C@H]1c2cc(OC)c(OC)c(OC)c2-c2c(cc3c(c2OC)OCO3)C[C@H](C)[C@]1(C)O ?
label 1

* * *

I'd be grateful if you could share measured inhibition for these entries.
Target: DNA-binding protein inhibitor ID-1 (Homo sapiens) (UniProt P41134)
Sequence (whole entry): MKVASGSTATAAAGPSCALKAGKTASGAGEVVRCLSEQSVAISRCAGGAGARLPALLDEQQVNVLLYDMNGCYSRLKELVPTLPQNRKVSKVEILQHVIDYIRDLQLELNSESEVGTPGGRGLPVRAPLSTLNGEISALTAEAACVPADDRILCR
Assay: Inhibition of ID1 in human U87 cells at 100 uM by luciferase reporter gene assay
Format: cell-based
Conditions: U-87MG ATCC
Give bare numbers, in %.

CCCCCCCC(=O)O[C@H]1c2cc(OC)c(OC)c(OC)c2-c2c(cc3c(c2OC)OCO3)C[C@H](C)[C@]1(C)O | 57.6
CCCCCCCCCCCCCCCC(=O)O[C@H]1c2cc(OC)c(OC)c(OC)c2-c2c(cc3c(c2OC)OCO3)C[C@H](C)[C@]1(C)O | 4.8
COc1cc2c(c(OC)c1OC)-c1c(cc3c(c1OC)OCO3)C[C@H](C)[C@](C)(O)[C@H]2O | 1

Using the record for CCCCCCCCCC(=O)O[C@H]1c2cc(OC)c(OC)c(OC)c2-c2c(cc3c(c2OC)OCO3)C[C@H](C)[C@]1(C)O , report its inhibition.
46.9
